# Test system: human PDE9A2 (Homo sapiens, UniProt O76083)
# Construct: made in house; host or cells: Sf9 insect cells (infected); crude lysate used as enzyme source
# Sequence (O76083 1-533 isoform O76083-2): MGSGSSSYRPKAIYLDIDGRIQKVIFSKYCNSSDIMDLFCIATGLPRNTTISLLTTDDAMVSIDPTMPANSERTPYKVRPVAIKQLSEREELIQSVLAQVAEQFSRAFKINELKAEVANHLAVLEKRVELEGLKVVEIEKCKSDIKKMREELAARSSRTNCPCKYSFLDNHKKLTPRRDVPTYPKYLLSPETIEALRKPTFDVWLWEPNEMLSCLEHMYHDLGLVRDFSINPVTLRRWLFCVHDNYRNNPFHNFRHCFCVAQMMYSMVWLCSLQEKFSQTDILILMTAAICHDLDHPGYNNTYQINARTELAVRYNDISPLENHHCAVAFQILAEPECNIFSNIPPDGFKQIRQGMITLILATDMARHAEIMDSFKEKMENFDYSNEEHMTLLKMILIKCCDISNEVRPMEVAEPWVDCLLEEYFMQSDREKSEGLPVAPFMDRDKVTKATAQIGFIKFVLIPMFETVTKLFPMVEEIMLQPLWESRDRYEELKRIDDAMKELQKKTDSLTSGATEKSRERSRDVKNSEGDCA
# Procedure summary: PDE9A2 enzymatic activity assay (scintillation proximity assay, SPA)
# Type: biochemical
# Run conditions: read-out: % inhibition of PDE9A2 (at 10 micromolar concentration), 10 micromolar concentration; values above 100% adjusted to 100%
Assay readout: inhibition at 10 µM (%)
Unit % implied. Number only.

Solved entries:
*Q* # returns recorded inhibition at 10 µM (system: human PDE9A2 (Homo sapiens, UniProt O76083)) for CC(Cc1nc2c(cnn2C2CCOC2)c(=O)[nH]1)C(F)(F)F (mixture of isomers)
*A* 91

*Q* Fill in the recorded inhibition at 10 µM for this compound, with human PDE9A2 (Homo sapiens, UniProt O76083) as test system: COC(=O)N1CCCC(n2ncc3c(=O)[nH]c(CC4CCCC4)nc32)C1 (racemic)
*A* 100

*Q* # query: inhibition at 10 µM | item O=c1[nH]c(Cc2ccccc2OC(F)(F)F)nc2c1cnn2C1CCOC1 (racemic) | system: human PDE9A2 (Homo sapiens, UniProt O76083)
*A* 99

Continuing:
*Q* What is its inhibition at 10 µM for human PDE9A2 (Homo sapiens, UniProt O76083)? Entry: CC1CC(n2ncc3c(=O)[nH]c(Cc4ccccc4C(F)(F)F)nc32)CCO1 (racemic)
*A* 92

*Q* Please tell me: inhibition at 10 µM of CN(C)C(=O)N1CCC(n2ncc3c(=O)[nH]c(Cc4ccccc4)nc32)C1 (racemic) , system human PDE9A2 (Homo sapiens, UniProt O76083)?
*A* 82

*Q* I'm curious: which inhibition at 10 µM was measured for O=c1[nH]c(Cc2ccccn2)nc2c1cnn2C1CCOC1 (single isomer, unassigned) [Example 132-7] tested on human PDE9A2 (Homo sapiens, UniProt O76083)?
*A* 94

*Q* Give recorded inhibition at 10 µM with human PDE9A2 (Homo sapiens, UniProt O76083) for the following compound: O=c1[nH]c(CC2CCC2)nc2c1cnn2C1CCOCC1
*A* 98

----------
# Test system: human PDE9A2 (Homo sapiens, UniProt O76083)
# Construct: made in house; host or cells: Sf9 insect cells (infected); crude lysate used as enzyme source
# Procedure summary: PDE9A2 enzymatic activity assay (scintillation proximity assay, SPA)
# Type: biochemical
# Run conditions: reported only as range 1-100 or 101-1200 nanomolar; specific value lies within range; read-out: IC50 within range [nanomolar (nM)]
# Lookup of reported IC50 keyed by entry

// known answers, use as guide
*Q* Give the reported IC50 for O=c1[nH]c(Cc2cc(OC(F)(F)F)ccc2F)nc2c1cnn2C1CCOCC1 (system: human PDE9A2 (Homo sapiens, UniProt O76083)).
*A* 1 to 100 nM

*Q* So what IC50 did O=c1[nH]c(CCC(F)(F)F)nc2c1cnn2C1CCOCC1 get with human PDE9A2 (Homo sapiens, UniProt O76083)?
*A* 101 to 1200 nM

*Q* Give recorded IC50 with human PDE9A2 (Homo sapiens, UniProt O76083) for the following compound: O=c1[nH]c(Cc2ccc(F)c(Cl)c2)nc2c1cnn2C1CCCOC1 (racemic)
*A* 1 to 100 nM

*Q* Lab request: please report IC50 under test system human PDE9A2 (Homo sapiens, UniProt O76083) for CC(C)Cc1nc2c(cnn2C2CCCOC2)c(=O)[nH]1 (racemic)
*A* 1 to 100 nM

*Q* # value lookup — system human PDE9A2 (Homo sapiens, UniProt O76083), readout IC50, item O=C(c1ccccc1)N1CCCC(n2ncc3c(=O)[nH]c(CC4CCCC4)nc32)C1 (racemic)
*A* 1 to 100 nM

*Q* Test system human PDE9A2 (Homo sapiens, UniProt O76083); read-out IC50; what value for O=c1[nH]c(CC2CCCC2)nc2c1cnn2C1CCOCC1 ?
*A* 1 to 100 nM

*Q* API: value(readout= IC50, system= human PDE9A2 (Homo sapiens, UniProt O76083), query= CCC(Cc1nc2c(cnn2C2CCCN(C(=O)c3ccccc3)C2)c(=O)[nH]1)C(F)(F)F (mixture of isomers) )
*A* 101 to 1200 nM

*Q* What IC50 appears in the records for this compound with human PDE9A2 (Homo sapiens, UniProt O76083)? CC(C)Cc1nc2c(cnn2C2CCOC2)c(=O)[nH]1 (single isomer, unassigned) [Example 132-3]
*A* 101 to 1200 nM

---
*Q* Test system human PDE9A2 (Homo sapiens, UniProt O76083); read-out IC50; what value for CCOc1ccccc1Cc1nc2c(cnn2C2CCCOC2)c(=O)[nH]1 (racemic) ?
*A* 1 to 100 nM

*Q* # value lookup — system human PDE9A2 (Homo sapiens, UniProt O76083), readout IC50, item O=c1[nH]c(CC2CC2)nc2c1cnn2C1CCS(=O)(=O)CC1
*A* 101 to 1200 nM

Data credit: patent US8623879B2
